test system: EW-7 (Ewing's Sarcoma); experiment: combination Emax (second highest fraction inhibited in the dose matrix, 72 h); higher = more inhibition; extreme values may be limits of the assay

- Compound: "CN(CCO)CC[C@H](CSc1ccccc1)Nc1ccc(S(=O)(=O)NC(=O)c2ccc(N3CCC([C@@H](O)c4ccccc4-c4ccc(Cl)cc4)CC3)cc2)cc1S(=O)(=O)C(F)(F)F [AZD4320] + C=CCn1c(=O)c2cnc(Nc3ccc(N4CCN(C)CC4)cc3)nc2n1-c1cccc(C(C)(C)O)n1 [AZD1775] (first compound max 1 µM, partner max 1 µM)"
  System Name: "EW-7 (Ewing's Sarcoma)"
  combination Emax: 1
- Compound: "Cc1c2c(nn1C)CSCc1cc(n(C)n1)CSc1cc(c3ccccc3c1)OCCCc1c(C(=O)O)n(C)c3c-2c(Cl)ccc13 [AZD5991] + C[C@@H](Nc1cc(F)cc(F)c1)c1cc(C(=O)N(C)C)cc2c(=O)cc(N3CCOCC3)oc12 [AZD8186] (first compound max 1 µM, 7x7, partner max 3 µM)"
  System Name: "EW-7 (Ewing's Sarcoma)"
  combination Emax: 0.3
- Compound: "COc1cccc(OCCCN)c1-c1cc(Nc2cnc(C#N)cn2)n[nH]1 [Prexasertib] + C=CCn1c(=O)c2cnc(Nc3ccc(N4CCN(C)CC4)cc3)nc2n1-c1cccc(C(C)(C)O)n1 [AZD1775] (first compound max 1 µM, partner max 1 µM)"
  System Name: "EW-7 (Ewing's Sarcoma)"
  combination Emax: 0.962
- Compound: "C[C@@H]1COCCN1c1cc(C2([S@](C)(=N)=O)CC2)nc(-c2ccnc3[nH]ccc23)n1 [AZD6738] + C1CC(C1)(C(=O)[O-])C(=O)[O-].N.N.[Pt+2] [Carboplatin] (first compound max 10 µM, 7x7, partner max 10 µM)"
  System Name: "EW-7 (Ewing's Sarcoma)"
  combination Emax: 0.936
- Compound: "CS(=O)(=O)CCNCc1ccc(-c2ccc3ncnc(Nc4ccc(OCc5cccc(F)c5)c(Cl)c4)c3c2)o1 [Lapatinib] + Cn1cnc2c(F)c(Nc3ccc(Br)cc3Cl)c(C(=O)NOCCO)cc21 [Selumetinib] (first compound max 10 µM, 7x7, partner max 10 µM)"
  System Name: "EW-7 (Ewing's Sarcoma)"
  combination Emax: 0.731
- Compound: "C=CCn1c(=O)c2cnc(Nc3ccc(N4CCN(C)CC4)cc3)nc2n1-c1cccc(C(C)(C)O)n1 [AZD1775] + O=C(c1cc(Cc2n[nH]c(=O)c3ccccc23)ccc1F)N1CCN(C(=O)C2CC2)CC1 [Olaparib] (first compound max 1 µM, partner max 10 µM)"
  System Name: "EW-7 (Ewing's Sarcoma)"
  combination Emax: 0.82
- Compound: "CN(CCO)CC[C@H](CSc1ccccc1)Nc1ccc(S(=O)(=O)NC(=O)c2ccc(N3CCC([C@@H](O)c4ccccc4-c4ccc(Cl)cc4)CC3)cc2)cc1S(=O)(=O)C(F)(F)F [AZD4320] + Cn1cnc2c(F)c(Nc3ccc(Br)cc3Cl)c(C(=O)NOCCO)cc21 [Selumetinib] (first compound max 1 µM, 7x7, partner max 3 µM)"
  System Name: "EW-7 (Ewing's Sarcoma)"
  combination Emax: 0.968
- Compound: "NC1(C(=O)N[C@@H](CCO)c2ccc(Cl)cc2)CCN(c2ncnc3[nH]ccc23)CC1 [Capivasertib] + CCN(CCO)CCCOc1ccc2c(Nc3cc(CC(=O)Nc4cccc(F)c4)[nH]n3)ncnc2c1 [AZD2811] (first compound max 10 µM, 7x7, partner max 1 µM)"
  System Name: "EW-7 (Ewing's Sarcoma)"
  combination Emax: 0.885
- Compound: "CC1(C)CCC(CN2CCN(c3ccc(C(=O)NS(=O)(=O)c4ccc(NCC5CCOCC5)c([N+](=O)[O-])c4)c(Oc4cnc5[nH]ccc5c4)c3)CC2)=C(c2ccc(Cl)cc2)C1 [Venetoclax] + C=CCn1c(=O)c2cnc(Nc3ccc(N4CCN(C)CC4)cc3)nc2n1-c1cccc(C(C)(C)O)n1 [AZD1775] (first compound max 1 µM, partner max 1 µM)"
  System Name: "EW-7 (Ewing's Sarcoma)"
  combination Emax: 0.974
- Compound: "CC(=O)Nc1cccc(-n2c(=O)n(C3CC3)c(=O)c3c(Nc4ccc(I)cc4F)n(C)c(=O)c(C)c32)c1 [Trametinib] + Cc1nc(-c2cn3c(n2)-c2ccc(-c4cnn(C(C)(C)C(N)=O)c4)cc2OCC3)n(C(C)C)n1 [Taselisib] (first compound max 1 µM, 7x7, partner max 10 µM)"
  System Name: "EW-7 (Ewing's Sarcoma)"
  combination Emax: 1
- Compound: "CCN(CCO)CCCOc1ccc2c(Nc3cc(CC(=O)Nc4cccc(F)c4)[nH]n3)ncnc2c1 [AZD2811] + C=CCn1c(=O)c2cnc(Nc3ccc(N4CCN(C)CC4)cc3)nc2n1-c1cccc(C(C)(C)O)n1 [AZD1775] (first compound max 1 µM, partner max 1 µM)"
  System Name: "EW-7 (Ewing's Sarcoma)"
  combination Emax: 0.817
